// inhibition at 50 µg/mL lookup, one value per entry
# Test system: Mycosphaerella arachidis
# PROTOCOL: Fungicidal activity against Mycosphaerella arachidis assessed as inhibition of mycelium growth at 50 ug/mL by mycelium growth rate method
# Type: functional

{"SMILES": "CCCCOC(=O)c1cccc2nc3ccc(N)cc3nc12", "SYSTEM_NAME": "Mycosphaerella arachidis", "OBSERVED_VALUE": "24%"}
{"SMILES": "COC(=O)c1cccc2nc3cc(C(=O)CCc4ccccc4)ccc3nc12", "SYSTEM_NAME": "Mycosphaerella arachidis", "OBSERVED_VALUE": "2.6%"}
{"SMILES": "CCOC(=O)c1cccc2nc3c(N)cccc3nc12", "SYSTEM_NAME": "Mycosphaerella arachidis", "OBSERVED_VALUE": "32%"}
{"SMILES": "O=C(O)c1cccc2nc3ccccc3nc12", "SYSTEM_NAME": "Mycosphaerella arachidis", "OBSERVED_VALUE": "92.3%"}
{"SMILES": "COC(=O)c1cccc2nc3ccc(N)cc3nc12", "SYSTEM_NAME": "Mycosphaerella arachidis", "OBSERVED_VALUE": "4%"}

Exam item: Requested read-out: inhibition at 50 µg/mL. Entry: CCOC(=O)c1cccc2nc3cc(N)ccc3nc12
Marked response: 7.7%

Exam item: Requested read-out: inhibition at 50 µg/mL. Entry: CCOC(=O)c1cccc2nc3ccc(N)cc3nc12
Marked response: 12%

Exam item: Requested read-out: inhibition at 50 µg/mL. Entry: CCCOC(=O)c1cccc2nc3ccc(N)cc3nc12
Marked response: 20%

Exam item: Requested read-out: inhibition at 50 µg/mL. Entry: CCOC(=O)c1cccc2nc3cc(N)c(OCC)cc3nc12
Marked response: 11.5%

Exam item: Requested read-out: inhibition at 50 µg/mL. Entry: COC(=O)c1cccc2nc3cc(C(C)=O)ccc3nc12
Marked response: 0%

Exam item: Requested read-out: inhibition at 50 µg/mL. Entry: CCCCOC(=O)c1cccc2nc3c([N+](=O)[O-])c(N)ccc3nc12
Marked response: 12.5%

Exam item: Requested read-out: inhibition at 50 µg/mL. Entry: COC(=O)c1cccc2nc3cc(N)ccc3nc12
Marked response: 0%
